# target: XIAP BIR-3 (Homo sapiens)
# Construct: 40 nM of the respective IAP BIR3
# Sequence (P98170 241-356 limits assumed): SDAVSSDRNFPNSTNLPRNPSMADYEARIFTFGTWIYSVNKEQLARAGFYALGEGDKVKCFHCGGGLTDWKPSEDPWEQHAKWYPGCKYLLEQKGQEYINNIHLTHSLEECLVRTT
# measurement-notes: Fluorescence polarization binding to XIAP BIR-3 with labeled peptide AbuRPF-K(5-Fam)-NH2
# reported-conditions: 40 nM BIR3, 5 nM labeled peptide, reported as ranges
# Experimental: The binding affinities of the compounds are reported as a KD value (μM). […] Following incubation, the polarization values (mP) were measured on a Victor2V (available from PerkinElmer Life Sciences) using a 485 nm excitation filter and a 520 nm emission filter. […]
Kd: recorded values

compound: CN[C@@H](C)C(=O)N[C@H](C(=O)N1CC[C@@H]2[C@H]1[C@@H](OCc1ccc(F)cc1)CN2c1ncccn1)C(C)(C)C [Example 45]
Kd: 100 to 1000 nM

compound: CN[C@@H](C)C(=O)N[C@H](C(=O)N1CC[C@H]2NC[C@H](Oc3ccc4c(c3)CCCC4)[C@H]21)C1CCCCC1 [Example 6]
Kd: < 100 nM

compound: CN[C@@H](C)C(=O)N[C@H](C(=O)N1CC[C@@H]2[C@H]1[C@@H](COc1ccc(F)c(F)c1)CN2C(=O)C(C)=O)C(C)(C)C [Example 66]
Kd: < 100 nM

compound: CN[C@@H](C)C(=O)N[C@H](C(=O)N1CC[C@H]2NC[C@H](Oc3cccc4ccccc34)[C@H]21)C1CCCCC1 [Example 8]
Kd: < 100 nM

compound: CN[C@@H](C)C(=O)N[C@H](C(=O)N1CC[C@@H]2[C@H]1[C@@H](Oc1ccc(F)c(F)c1)CN2C1CCOCC1)C(C)(C)C [Example 15]
Kd: 100 to 1000 nM

compound: CN[C@@H](C)C(=O)N[C@H](C(=O)N1CC[C@@H]2[C@H]1[C@@H](OC(=O)N1CCOCC1)CN2C(=O)NC(C)C)C(C)(C)C [Example 60]
Kd: 1000 to 10000 nM
